Read-out: solute carrier (SLC22A1), SLC22A1 (gene 6580)
assay_notes: LTEA_HepaRG_SLC22A1: Life Technologies and Expression Analysis (LTEA) Assay for solute carrier (SLC22A1) using HepaRG (AID 2283524)
test_parameters: mRNA level, 48 h; actives raise or lower the signal
Description: LTEA_HepaRG is a cell based, multiplexed-readout assay that uses HepaRG, a human liver cell line, with measurements taken at 48 hours after chemical dosing on a 96-well plate.LTEA_HepaRG_SLC22A1 is one of 102 assay component(s) measured in the LTEA HepaRG cell culture assay. It is a marker of NR mediated transport.Data from the assay component LTEA_HepaRG_SLC22A1 was analyzed into 1 endpoint. […]
The source made the active and inactive calls. The calls were made as follows: active = hit-call score of the fitted dose curve at least 0.9, where 1 is the maximum; inactive = score below 0.9.
Choose one outcome from this list and give only that: label 1 (active), label 0 (inactive)

Consider the following illustrative entries.
1) C1CCC(SSC2CCCCC2)CC1 : label 0
2) Nc1ccccc1N : label 1
3) CN1CCN(Cc2cc(-c3ccc4[nH]c(=O)oc4c3)co2)[C@@H](c2ccc(F)cc2)C1 : label 1

Please share the test call associated with NC(=O)Cn1c(=O)cc(CCN2CCN(c3nccc4sccc34)CC2)c2ccc(F)cc21 .
label 0

Please share the test call associated with CCCCCCCCCCCCCCCC .
label 0

Please share the test call associated with CCCCC(CC)COC(=O)CC(C(=O)OCC(CC)CCCC)S(=O)(=O)O (configuration not stated) .
label 1

Please share the test call associated with Cc1ccc(C)c(C)c1 .
label 0

Please share the test call associated with CN[C@H]1CC[C@@H](c2ccc(Cl)c(Cl)c2)c2ccc(S(N)(=O)=O)cc21 .
label 1

---

Read-out: Bcl-2 (BAD) gene, BAD (gene 572)
assay_notes: LTEA_HepaRG_BAD: Life Technologies and Expression Analysis (LTEA) Assay for Bcl-2 (BAD) gene using HepaRG (AID 2283469)
test_parameters: mRNA level, 48 h; actives raise or lower the signal
Activity calls are given as the source filed them. How the source made its calls: active means hit-call score of the fitted dose curve at least 0.9, where 1 is the maximum; inactive means score below 0.9.
Choose one outcome from this list and give only that: y for active, n for inactive

Consider the following illustrative entries.
1. COCCOCCOC : y
2. CCCc1cc(=O)[nH]c(=S)[nH]1 : n
3. C1CCC(SSC2CCCCC2)CC1 : n
4. COCCOC[C@H](CC1(C(=O)NC2CCC(C(=O)O)CC2)CCCC1)C(=O)Oc1ccc2c(c1)CCC2 (stereo partly drawn) : n
5. CCCCCCCCCCC : n
6. CCc1c(C(=O)NN2CCCCC2)nn(-c2ccc(Cl)cc2Cl)c1-c1ccc(Br)cc1 : n
7. CCCCC(CC)COC(=O)CC(C(=O)OCC(CC)CCCC)S(=O)(=O)O (stereo not drawn) : y
8. Nc1ccc2c(c1)C(=O)c1ccccc1C2=O : n

Please share the test call associated with NS(=O)(=O)c1cc2c(cc1Cl)NCNS2(=O)=O .
n

Please share the test call associated with CCOC(=O)CCC(=O)OCC .
n

Please share the test call associated with CC(=O)OCCOCCOCCOC(C)=O .
n

Please share the test call associated with CC(=O)OC/C=C(\C)CCC=C(C)C .
n

Please share the test call associated with Nc1nc(N)c2nc(CNc3ccc(C(=O)N[C@@H](CCC(=O)O)C(=O)O)cc3)cnc2n1 .
n

---

assay_notes: BSK_4H_Eotaxin3: BioMAP Diversity Plus: 4H Assay for Eotaxin 3 Biomarker Activity (AID 2283000);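 also: CCL26 protein level quantified by ELISA in parallel with SRB cytotoxicity check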
test_parameters: primary human endothelial cells (HUVEC); actives raise or lower the signal
Active and inactive are the calls of the source. The calls were made as follows: active = hit-call score of the fitted dose curve at least 0.9, where 1 is the maximum; inactive = score below 0.9.
measured_parameter: outcome

1. O=[N+]([O-])C(CO)(CO)CO : inactive
2. c1cc(-c2ccncc2)ccn1 : inactive
3. CCOC(=O)C(C)(C)Oc1ccc(Cl)cc1 : inactive
